We begin with a simple list: items and their reported inhibition.
Biological target: G-protein coupled receptor 35 (Homo sapiens) (UniProt Q9HC97)
Sequence (Q9HC97 whole entry, looked up): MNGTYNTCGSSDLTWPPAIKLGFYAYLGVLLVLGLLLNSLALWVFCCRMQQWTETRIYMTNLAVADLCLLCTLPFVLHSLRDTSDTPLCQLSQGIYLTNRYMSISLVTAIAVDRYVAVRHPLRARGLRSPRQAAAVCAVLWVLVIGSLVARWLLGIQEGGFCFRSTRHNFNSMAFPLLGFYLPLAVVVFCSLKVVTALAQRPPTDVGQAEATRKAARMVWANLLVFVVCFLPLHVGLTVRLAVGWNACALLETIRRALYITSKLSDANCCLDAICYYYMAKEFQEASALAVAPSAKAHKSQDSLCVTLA
Assay: inhibition of zaprinast-stimulated GPR35 beta-arrestin translocation – imaging, U2OS, beta-arrestin-GFP, zaprinast agonist, primary screen (AID 2058)
Conditions: zaprinast antagonism, at 10 µM, active compounds read high
In all, about 290,000 compounds went through this assay and about 150 (0.052%) were called active. Only a selection was taken, and actives are over-represented in it overall. Measured potencies and affinities stand elsewhere.

{"columns": ["Compound", "Scale unit", "inhibition"],
 "data": [
  ["CCN(CC)c1ccc(/C=C(/C#N)C(=O)NC(C)C)o1", "%", 14.3],
  ["O=S(=O)(Nc1ccc(N=Nc2ccc(O)c3ccccc23)cc1)c1ccccc1", "%", 70.3],
  ["CCC(Oc1ccc2ccccc2c1)C(=O)O (stereo not drawn)", "%", 6.8],
  ["Cc1cccc(NC(=O)C2CCN(S(=O)(=O)c3cccc4nonc34)CC2)c1", "%", -1.2],
  ["Cc1ccc(Cn2ncc(Cl)c(Cl)c2=O)cc1", "%", 33.1],
  ["CC1Cc2ccccc2N1C(=O)CSc1nc(-c2ccccc2)cs1 (stereo not drawn)", "%", -14.5],
  ["CCCc1ccc(/C=C2\\C(=O)c3ccccc3C(O)=C2C(=O)OCC)cc1", "%", 21.2],
  ["O=C(CCn1cccn1)Nc1ccc2c(c1)OCCO2", "%", 18.7],
  ["O=S(=O)(NN1CCOCC1)c1cc(Cl)cc(Cl)c1O", "%", -8.3],
  ["CC(C)NC(=O)/C(C#N)=C/c1ccc(N(C)C)o1", "%", 19.2],
  ["CCOC(=O)C1=C(O)c2ccccc2C(=O)/C1=C\\c1ccc(CC)cc1", "%", 31.1],
  ["Cc1ccc(/C=C(/C#N)C(=O)NC(C)c2ccccc2)o1 (stereo not drawn)", "%", -7.7],
  ["COC(=O)c1cc(OC)c(OC)cc1N1C(=O)CCCC1=O", "%", 8.7],
  ["C/C=C(\\C)C(=O)NCCN1C2=NC[C@@H](Cc3ccccc3)N2C[C@H]1Cc1ccc(O)cc1", "%", 1],
  ["Cc1cc(=O)oc2c(C)c3occc3cc12", "%", -1.8],
  ["COc1ccc(NC(=O)COC(=O)C2CC(=O)N(c3ccc(C)cc3)C2)cc1 (stereo not drawn)", "%", -10.1],
  ["CCC(C(=O)O)n1nc(-c2ccccc2)c2cc(Cl)ccc21 (stereo not drawn)", "%", -3.2],
  ["CC(C)NC(=O)/C(C#N)=C\\c1ccc(N(C)C)o1", "%", 50],
  ["CC(C)(C)NC(=O)CN(C(=O)C(=O)Nc1ccc2c(c1)OCCO2)C1CCCC1", "%", 15.5],
  ["COc1cccc(CNS(=O)(=O)c2ccc3c(c2)N(C(C)=O)CCO3)c1", "%", -10.2],
  ["Cc1ccc(/C=C(\\C#N)C(=O)NC(C)c2ccccc2)o1 (stereo not drawn)", "%", -5.7],
  ["COc1ccccc1NC(=O)N1CCN(Cc2ccc3c(c2)OCO3)CC1", "%", -7.3],
  ["COC(=O)c1ccc(/C=C(\\C#N)C(=O)NC(C)c2ccccc2)cc1 (stereo not drawn)", "%", -3.1]
]}

###

We begin with a simple list: items and their reported inhibition.
Biological target: G-protein coupled receptor 35 (Homo sapiens) (UniProt Q9HC97)
Experiment: inhibition of zaprinast-stimulated GPR35 beta-arrestin translocation – imaging, U2OS, beta-arrestin-GFP, zaprinast agonist, primary screen (AID 2058)
Details: zaprinast antagonism, at 10 µM, active compounds read high
In all, about 290,000 compounds went through this assay and about 150 (0.052%) were called active. This is one part of a sample in which actives are shown more often than they occur. Measured potencies and affinities stand elsewhere.

{"columns": ["Compound structure string", "inhibition"],
 "data": [
  ["Cc1ccc(Cn2ncc3c(N4CCN(C)CC4)ncnc32)cc1", "-0.4% (inactive)"],
  ["Cc1ccc(/C(C#N)=C\\c2ccc(N3CCOCC3)o2)cc1", "27.2% (inactive)"],
  ["FC(F)(F)c1cnc(-c2cnc3c(-c4ccc(Cl)cc4)cnn3c2)c(Cl)c1", "2.1% (inactive)"],
  ["O=C(Nc1ccccc1)C1=C[C@@H](c2csc3ccccc23)C[C@@H](OCc2ccc(CO)cc2)O1", "-24.8% (inactive)"],
  ["Cn1c(=O)[nH]c(=O)c2c1nc(Sc1nc3ccccc3s1)n2Cc1ccccc1", "13.4% (inactive)"],
  ["COc1ccc(-n2c(C)nnc2SCC(=O)N2CCOCC2)cc1", "-0.9% (inactive)"],
  ["COc1ccc(/C=C/C(=O)NCC(=O)N/N=C/c2ccc(OC)cc2)cc1", "9% (inactive)"],
  ["N#C/C(=C\\c1ccc(N2CCOCC2)o1)C(=O)NC1CCCCC1", "8.1% (inactive)"],
  ["O=C(/C=C\\c1ccccc1)NCC(=O)N/N=C/c1ccc(O)cc1O", "10.7% (inactive)"],
  ["Clc1ccc(Cn2ncc3c(N4CCCC4)ncnc32)cc1", "-11.9% (inactive)"],
  ["COc1ccc(/C=N/n2cnc3c([nH]c4ccc(C)cc43)c2=O)cc1CN1CCCC1", "1.2% (inactive)"],
  ["N#C/C(=C/c1ccc(N2CCOCC2)o1)c1ccc(Cl)cc1", "-12.2% (inactive)"],
  ["CCc1nnc(NS(=O)(=O)c2ccc(NC(=S)NC(=O)/C=C/c3ccc(F)cc3)cc2)s1", "11.3% (inactive)"],
  ["CCCCn1c(=N)n(CC(=O)c2ccc(OC)cc2)c2ccccc21", "-0.5% (inactive)"],
  ["Cc1ccc(-c2nc3ncccc3n2O)cc1", "2.4% (inactive)"],
  ["N#C/C(=C/c1ccc(N2CCOCC2)o1)C(=O)NC1CCCCC1", "9.2% (inactive)"],
  ["N#C/C(=C/c1ccc(N2CCCCC2)cc1)c1cccc(F)c1", "11.7% (inactive)"],
  ["C#CCOCCOCCOCCNc1nc(N2CCN(C(=O)[C@H]([C@@H](C)CC)n3cc(CCCN=C(N)N)nn3)CC2)nc(N2CCN(C(=O)[C@H](Cc3ccc(O)cc3)n3cc(CCO)nn3)CC2)n1", "-6.4% (inactive)"],
  ["N#C/C(=C/c1ccc(N2CCCCCC2)o1)c1cccc(F)c1", "104% (active)"],
  ["CN1CCc2nc(NC(=O)c3cccc(OC(F)F)c3)sc2C1", "4.4% (inactive)"],
  ["Cc1ccc(Cn2ncc3c(N4CCN(Cc5ccc(Cl)cc5)CC4)ncnc32)cc1", "11.6% (inactive)"],
  ["N#C/C(=C/c1ccc(Sc2nc3ccccc3[nH]2)o1)c1cccc(F)c1", "-1.5% (inactive)"]
]}
